Test system: NB6;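 note: growth inhibition of NB6 cells, read out by a cell viability assay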
experiment_description: cells
Type: functional, cell-based, Homo sapiens
test_parameters: nb6
Description: SANGER: Inhibition of human NB6 cell growth in a cell viability assay.
measured_metric: pIC50
FYI, pIC50 means -log10 of a concentration in mol per litre.

Request the reported pIC50 associated with BLEOMYCIN
3.37

====

Test system: SW1088
experiment_description: cells
Type: functional, cell-based, Homo sapiens
test_parameters: Homo sapiens, SW1088
Description: SANGER: Inhibition of human SW1088 cell growth in a cell viability assay.
pIC50: −log10 of the molar value.
measured_metric: pIC50

Recorded results for 2 compounds are shown here.
CC(C)CCN1c2nc(Nc3cc(F)c(O)c(F)c3)ncc2N(C)C(=O)C1C (configuration not stated) :: < 5.30
Cn1cnc2c(F)c(Nc3ccc(Br)cc3Cl)c(C(=O)NOCCO)cc21 [SELUMETINIB] :: < 5.40

// pIC50 lookup, key: CN(C)C(=N)NC(=N)N [METFORMIN]
< 1.70

# repeat for CC(C)c1ccccc1Cc1cc(C(=O)Nc2ccc(S(=O)(=O)c3ccccc3C(C)(C)C)cc2)c(O)c(O)c1O
6.34

Quick one: Nc1ccn([C@@H]2O[C@H](CO)[C@@H](O)C2(F)F)c(=O)n1 [GEMCITABINE]
< 5.99

Next compound: CS(=O)(=O)c1ccc(C(=O)Nc2ccc(Cl)c(-c3ccccn3)c2)c(Cl)c1 [VISMODEGIB]
< 5.00

// same read-out, input: CC1(C)CNc2cc(NC(=O)c3cccnc3NCc3ccncc3)ccc21 [MOTESANIB]
< 5.70
